# Tested on: immune system of healthy monkeys
# Protocol text: Immune indicators of cynomolgus monkeys after one month of administration (Example 5)
# Assay type: in vivo, cynomolgus monkey
# Stated conditions: once a day for 4 weeks, end of administration
Where no end group is shown, it is not given here.
Listing of entries alongside the reported IL-2.
Measurement name: IL-2 (pg/mL)

>>> df
                                    seq                       test_target  readout_value
0                     YAKQATLALA [APL7]  immune system of healthy monkeys           4.24
1                     FKGEQAGAGE [APL2]  immune system of healthy monkeys           4.62
2         MGPKGRTVIIEQSLGSPKVTK [APL21]  immune system of healthy monkeys           4.18
3  SIDLKDKKYKNIGAKLVQLVANNTNEEA [APL20]  immune system of healthy monkeys           4.55

* * *

# Tested on: PBMC
# Protocol text: PBMC stimulation test, IL-6 in supernatant by ELISA
# Type: cell-based, human
# Stated conditions: PBMC 1×10^6 cell/ml, peptide 10 μg/ml, 5 days of culture
Where no end group is shown, it is not given here.
Measurement name: IL-6 levels in the supernatant (ng/mL)

                                    seq  test_target  readout_value
0                     YVAQNTLKLA [APL5]         PBMC            8.7
1  SIDLKDKKYKNIGAKLVQLVANNTNEEA [APL20]         PBMC            2.7
2                     YAKQATLALA [APL7]         PBMC            3.7
3                     FKGEQAGAGE [APL2]         PBMC            2.3
4                 RSFTLAASETGVG [APL16]         PBMC            6.8
5         MGPKGRTVIIEQSLGSPKVTK [APL21]         PBMC            4.2
6                     YAKQATLKLA [APL6]         PBMC            6.5
7                 RSFTLASSATGVG [APL17]         PBMC            5.4

* * *

# System: CIA mice infected with chronic hepatitis B
# Protocol text: CIA mice infected with chronic hepatitis B (Example 8)
# Type: in vivo, mouse
# Stated conditions: at sacrifice, day 28
Where no end group is shown, it is not given here.
Measurement name: ALT level (U/L)

>>> print(df.to_string())
                                    seq  readout_value
0         MGPKGRTVIIEQSLGSPKVTK [APL21]          48.29
1  SIDLKDKKYKNIGAKLVQLVANNTNEEA [APL20]          46.28
2                     FKGEQAGAGE [APL2]          45.88
3                     YAKQATLALA [APL7]          48.53

* * *

# Test system: immune system of healthy rats
# Protocol text: Immune indicators of SD rats after one month of administration (Example 4)
# Assay type: in vivo, rat
# Stated conditions: once a day for 4 weeks, end of administration
Where no end group is shown, it is not given here.
Listing of entries alongside the reported IL-2.
Measurement name: IL-2 (pg/mL)

                                    seq                    test_target  readout_value
0                     FKGEQAGAGE [APL2]  immune system of healthy rats           3.69
1         MGPKGRTVIIEQSLGSPKVTK [APL21]  immune system of healthy rats           3.36
2                     YAKQATLALA [APL7]  immune system of healthy rats           3.06
3  SIDLKDKKYKNIGAKLVQLVANNTNEEA [APL20]  immune system of healthy rats           3.55

* * *

# System: immune system of healthy rats
# Protocol text: Immune indicators of SD rats after one month of administration (Example 4)
# Format: in vivo, rat
# Stated conditions: once a day for 4 weeks, end of administration
Where no end group is shown, it is not given here.
Measurement name: CD4% (%)

                                    seq  result_units  readout_value
0                     YAKQATLALA [APL7]             %          18.29
1         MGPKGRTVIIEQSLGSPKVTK [APL21]             %          18.72
2                     FKGEQAGAGE [APL2]             %          19.77
3  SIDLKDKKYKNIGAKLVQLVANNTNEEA [APL20]             %          18.96

* * *

# System: immune system of healthy rats
# Protocol text: Immune indicators of SD rats after one month of administration (Example 4)
# Assay type: in vivo, rat
# Stated conditions: once a day for 4 weeks, end of administration
Where no end group is shown, it is not given here.
Listing of entries alongside the reported TNF-α.
Measurement name: TNF-α (pg/mL)

>>> print(df.to_string())
                                    seq  measurement_name  readout_value
0  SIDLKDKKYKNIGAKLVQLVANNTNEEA [APL20]             TNF-α           5.09
1                     YAKQATLALA [APL7]             TNF-α           5.42
2                     FKGEQAGAGE [APL2]             TNF-α           5.13
3         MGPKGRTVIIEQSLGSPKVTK [APL21]             TNF-α           5.25

* * *

# Test system: immune system of healthy rats
# Protocol text: Immune indicators of SD rats after one month of administration (Example 4)
# Format: in vivo, rat
# Stated conditions: once a day for 4 weeks, end of administration
Where no end group is shown, it is not given here.
Measurement name: CD8% (%)

                                    seq  result_units  readout_value
0                     YAKQATLALA [APL7]             %          18.66
1         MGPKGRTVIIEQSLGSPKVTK [APL21]             %          19.06
2  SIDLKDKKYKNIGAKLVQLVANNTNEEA [APL20]             %          17.99
3                     FKGEQAGAGE [APL2]             %          17.29

* * *

Listing of entries alongside the reported CD4%.
# Tested on: immune system of healthy monkeys
# Protocol text: Immune indicators of cynomolgus monkeys after one month of administration (Example 5)
# Assay type: in vivo, cynomolgus monkey
# Stated conditions: once a day for 4 weeks, end of administration
Where no end group is shown, it is not given here.
Measurement name: CD4% (%)

In [3]: df
Out[3]:
                                    seq  measurement_name  readout_value
0  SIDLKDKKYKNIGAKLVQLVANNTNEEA [APL20]              CD4%          27.82
1         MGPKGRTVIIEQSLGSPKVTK [APL21]              CD4%          23.43
2                     FKGEQAGAGE [APL2]              CD4%          27.33
3                     YAKQATLALA [APL7]              CD4%          26.23
